Measured values drawn from PubChem BioAssay AID2165 for this set.

molecular target: Tyrosine-protein kinase JAK2 (Homo sapiens) (UniProt O60674); experiment: JAK2V617F kinase, IRF1 reporter and Ba/F3 cytotoxicity panel, late-stage follow-up, HEL and Ba/F3 cells (AID 2165); details: Ba/F3, irf1 reporter
Sequence (O60674 whole entry, looked up, change not shown): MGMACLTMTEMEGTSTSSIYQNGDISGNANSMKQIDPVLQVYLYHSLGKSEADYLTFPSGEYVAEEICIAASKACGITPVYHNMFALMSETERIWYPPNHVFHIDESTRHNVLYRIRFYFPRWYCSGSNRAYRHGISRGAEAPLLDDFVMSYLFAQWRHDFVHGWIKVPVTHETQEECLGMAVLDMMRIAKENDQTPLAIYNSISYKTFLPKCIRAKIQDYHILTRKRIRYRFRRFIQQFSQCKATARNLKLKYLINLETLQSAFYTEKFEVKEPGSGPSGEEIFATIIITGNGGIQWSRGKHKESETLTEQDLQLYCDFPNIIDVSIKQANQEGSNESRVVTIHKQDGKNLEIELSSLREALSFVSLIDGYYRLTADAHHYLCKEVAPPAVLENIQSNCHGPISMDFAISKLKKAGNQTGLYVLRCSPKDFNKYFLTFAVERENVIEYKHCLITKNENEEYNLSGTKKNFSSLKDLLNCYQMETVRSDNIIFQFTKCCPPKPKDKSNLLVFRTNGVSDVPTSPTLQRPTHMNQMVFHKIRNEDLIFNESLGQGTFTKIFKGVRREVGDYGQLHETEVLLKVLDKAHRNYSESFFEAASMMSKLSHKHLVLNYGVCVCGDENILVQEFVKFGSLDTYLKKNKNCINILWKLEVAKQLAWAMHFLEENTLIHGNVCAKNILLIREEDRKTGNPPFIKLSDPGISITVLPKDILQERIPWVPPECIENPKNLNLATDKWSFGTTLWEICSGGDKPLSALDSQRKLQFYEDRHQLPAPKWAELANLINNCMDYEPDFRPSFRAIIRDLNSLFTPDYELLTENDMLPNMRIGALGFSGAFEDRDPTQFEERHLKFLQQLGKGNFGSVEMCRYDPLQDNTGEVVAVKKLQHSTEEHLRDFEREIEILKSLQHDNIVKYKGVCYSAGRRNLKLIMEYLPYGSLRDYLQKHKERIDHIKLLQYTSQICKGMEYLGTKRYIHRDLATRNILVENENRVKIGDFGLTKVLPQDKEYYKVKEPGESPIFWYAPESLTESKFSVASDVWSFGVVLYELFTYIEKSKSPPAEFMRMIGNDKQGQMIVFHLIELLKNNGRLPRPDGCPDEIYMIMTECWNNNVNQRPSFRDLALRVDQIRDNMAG
Activity calls are given as the source filed them. Rule as the data show it: active = IC50 below about 9 µM; inactive = the rest.
Respond only with the outcome that fits, drawn from Yes for active, No for inactive

Input line: Fill in: this test's call for O=C(CCl)NCc1cc(-c2ccc(Cl)cc2)no1 is ___
Output line: Yes

Input line: Fill in: this test's call for CC(C)(C)c1cc(NC(=O)CCl)n(-c2ccccc2)n1 is ___
Output line: Yes

Input line: Fill in: this test's call for Cc1[nH]c(=O)c(C(=O)C=Cc2ccc(Br)cc2)c2c1CCCC2 is ___
Output line: Yes

Input line: Fill in: this test's call for O=C(CCl)N=c1sccn1Cc1ccc(Cl)cc1Cl is ___
Output line: Yes

Input line: Fill in: this test's call for CCCn1c(CN(C)Cc2ccccc2)nc2c1c(=O)n(C)c(=O)n2C is ___
Output line: Yes

Input line: Fill in: this test's call for O=C1C=CCC(/C=C/c2ccccc2)O1 (configuration not stated) is ___
Output line: Yes

Input line: Fill in: this test's call for O=C(C=C=Nc1ccccc1)C(=O)N=C=Cc1ccccc1 is ___
Output line: Yes

Input line: Fill in: this test's call for COc1ccc(OC)c(NS(=O)(=O)c2ccc(SC)cc2)c1 is ___
Output line: Yes

Input line: Fill in: this test's call for COc1cc2c(cc1OC)-c1cc(N3CCCc4ccccc43)nc(=O)n1CC2 is ___
Output line: No

Input line: Fill in: this test's call for CC(C)C1C(C#N)=C(N)Oc2n[nH]c(-c3ccc4ccccc4c3)c21 (configuration not stated) is ___
Output line: Yes

Input line: Fill in: this test's call for O=c1oc2ccc(Cl)cc2nc1/C=C(\O)c1ccco1 is ___
Output line: Yes

Input line: Fill in: this test's call for CCCCn1c(=N)n(CC(=O)c2ccc(Br)s2)c2ccccc21 is ___
Output line: Yes
